Target Of Assay: T1, human LILRB1 recombinant protein (human, UniProt Q8NHL6 24-461)
T1 construct: The ELISA method says only 'LILRB1 recombinant proteins' coated on plates; also called leukocyte immunoglobulin-like receptor subfamily B member 1
T1 sequence (Q8NHL6 24-461 limits assumed): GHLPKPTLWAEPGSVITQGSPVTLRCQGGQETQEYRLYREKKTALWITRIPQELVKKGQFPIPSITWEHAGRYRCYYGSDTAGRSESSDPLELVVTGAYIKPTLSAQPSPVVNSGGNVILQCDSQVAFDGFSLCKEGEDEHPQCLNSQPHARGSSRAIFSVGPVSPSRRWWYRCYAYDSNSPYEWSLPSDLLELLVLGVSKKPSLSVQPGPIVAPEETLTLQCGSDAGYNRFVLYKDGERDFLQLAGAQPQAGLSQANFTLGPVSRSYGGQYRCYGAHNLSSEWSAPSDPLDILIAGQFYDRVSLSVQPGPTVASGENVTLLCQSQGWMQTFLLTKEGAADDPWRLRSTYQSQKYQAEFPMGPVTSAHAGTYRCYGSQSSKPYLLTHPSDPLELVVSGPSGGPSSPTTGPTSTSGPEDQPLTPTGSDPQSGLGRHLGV
Test Description: ELISA, B cell supernatant
Define the label as yes when OD450 is strictly less than 2 OD450 and as no in all remaining cases.

Binder	Label
mAb of B cell clone 196 (supernatant) (antibody, V domains shown, rabbit) VH: QEQLVESGGGLVQPEGSLTLTCTDSGFSFTKNYYMCWVRQAPGKGLEWIGCIYAGSTNTFYASWAKGRFTISKASSTTVDLKMTSLTVADTATYFCARDFVSYLNLWGPGTLVTVSS VL: ELDMTQTPSSTSAAVGGTVTIKCQASQSVYNNNQLSWFQQKPGQPPKRLIYGASTLESGVPSRFSGSGSGTQFTLTISDLECDDAATYYCQGAVSSDYYPFGGGTEVEIK	no
mAb of B cell clone 7 (supernatant) (antibody, V domains shown, rabbit; also called B1-#7) VH: EQSLEESGGGLVKPGASLTVTCAVSGFSLNSYAITWVRQAPGKGLEYIGYIDTGASITDYASWAKGRFTISKTSSTTVTLEMTSLTDADTATYFCARGFSMFKLWGPGTLVTISS VL: ELDLTQTPSSVSAAVGGTVTISCQASQSVYGNNRLAWYHQKPGQPPKRLIYLASTLDSGVPSRFKGAGSGTQFTLTISDLECDDAATYYCAGGYAGNFNAFGGGTEVEIK	no
mAb of B cell clone 72 (supernatant) (antibody, V domains shown, rabbit; also called B1-#72-1) VH: QSVKESGGGLVQPEGSLALTCKASGIDLSNYWYMCWVRQAPGKGLEWIGCVATDSSRTHYATWAKGRFTVSKTSSTTVTLQMTSLTAADTATYFCARGSGASTNGVWWVMGDGMDLWGPGTLVTISS VL: ELVMTQTPSSVSAAVGGTVTIKCQASPSISTYLSWYQQKPGQPPKRLINRASTLASGVPPRFKGSGAGTQFTLTISDLECADAATYYCQNNYHSGSSNGGGVAFGGGTEVEIK	no
mAb of B cell clone 18 (supernatant) (antibody, V domains shown, rabbit; also called B1-#18) VH: EQSVKESGGGLVKPGGTLTLTCIVSGFSLSRYAVTWVRQAPGKGPEWIGYIDTSSGNKDYANWVNGRFTISKTSSTTVTLQMTSLTAADTATYFCARGFSMFKLWGPGTLVTISS VL: ELVMTQTPSSVSAAVGGTVTISCQASQSVYNNNNLAWYQQKPGQPPKRLIYSASTLDSGVPSRFSGSGSGTQFTLTISDLECDDAATYYCAGGYTYNINIFGGGTEVEIK	no
mAb of B cell clone 115 (supernatant) (antibody, V domains shown, rabbit) VH: EQSVKESGGGLVQPEGSLTLTCTASGFSFSSSYWICWVRQAPGKGLEWIGCIATGTGSTYYANWVNGRFTMSKPSSTTVTLQMTTLTAADTATYFCARGGGYWSFSLWGPGTLVTISS VL: ELVMTQTPSSVEAAVGGTVTNKCQASEDIYSNLAWYQQKPGQPPKLLIYGATTLASGVPSRFKGSGSGTEFTLTISDLECADAATYYCQAESNDVWAFGGGTEVVVK	yes

Q: # check: OD450 < 2 OD450 for mAb of B cell clone 28 (supernatant) (antibody, V domains shown, rabbit; also called B1-#28) VH: EQSLEESGGGLVKPGASLTLTCKASGFSFSSDYDMCWVRQAPGKGLEWIGCIVTGFSGRIYYATWARGRFTFSRTSSTTLTLQMTSLTAADTATYFCARDSGNYNWDLWGPGTLVTISS VL: ELDLTQTPTSVSAAVGGTVTIKCQASQSISDYLSWYQQKPGQPPKLLIYRASTLASGVPSRFKGSGSGTEFTLTISDLECADAATYYCQSNYYGSQGCTFGGGTEVEIK
Ans: no

Q: Please determine if mAb of B cell clone 5 (supernatant) (antibody, V domains shown, rabbit; also called B1-#5) VH: EQSLEESGGDLVKPEGSLTLTCTASELSFSSAYYMCWVRQAPGKGLEWIGCIYSGDGDTYYANWAKGRFTISKTSSTTVTLQMTSLTDADTATYFCARALDSHYSSFDLWGPGTLVTISS VL: ELDMTQTPSSVSAAVGDTVTIKCQASQSIYRYLAWYQQKPGQRPSLLIYYGSDLASGVPSRFSGSGSGTEFTLTISDLECADAASYYCQTTYDDYHNGWAFGGGTNVEIN is below 2 OD450 in terms of OD450.
Ans: no

Q: Threshold test, OD450 < 2 OD450: mAb of B cell clone 210 (supernatant) (antibody, V domains shown, rabbit; also called B1-#210) VH: QSVEESEGRLVTPGGSLTLTCTVSGIDLSSYAMGWVRQAPGKGLEWIGVIGKSGTTYYANWAKGRFTISKTSTTVDLQIASPTTEDTATYFCARAGASRSIYYDLWGQGTLVTISS VL: ELVLTQTPSSKSVAVGDTVTINCQASESVYGNNRCSWYQQKPGQPPKLLIYQASTLASGVPSRFSGSGSGTQFTLTISDVVCDDAATYYCAGHKGTTNDGNDFGGGTEVEIK
Ans: yes

Q: Say whether its OD450 is strictly beneath 2 OD450. Entry: mAb of B cell clone 198 (supernatant) (antibody, V domains shown, rabbit) VH: QSLEESGGGLVKPEGSLTLTCTASGFDLSNNYYICWVRQAPGKGLELIACVDSDLTDSADYASWAKGRFTISKTSSTTVTLQMTSLTAADTATYFCAGSGSGYYYYYGMDLWGPGTLVTISS VL: ELDMTQTPASVSEPVGGTVTIKCQASQSIGSYLAWYQQKPGQPPKLLAFYASTLKSGVPPRFKGSGSGTEFTLTISDLECADAATYYCQSNRLSSSDVNAFGGGTEVEIK
Ans: no
